Collected IC50 values appear next to each entry.
- experimental-target: Acetylcholinesterase (Electrophorus electricus)
- Sequence (O42275 whole entry): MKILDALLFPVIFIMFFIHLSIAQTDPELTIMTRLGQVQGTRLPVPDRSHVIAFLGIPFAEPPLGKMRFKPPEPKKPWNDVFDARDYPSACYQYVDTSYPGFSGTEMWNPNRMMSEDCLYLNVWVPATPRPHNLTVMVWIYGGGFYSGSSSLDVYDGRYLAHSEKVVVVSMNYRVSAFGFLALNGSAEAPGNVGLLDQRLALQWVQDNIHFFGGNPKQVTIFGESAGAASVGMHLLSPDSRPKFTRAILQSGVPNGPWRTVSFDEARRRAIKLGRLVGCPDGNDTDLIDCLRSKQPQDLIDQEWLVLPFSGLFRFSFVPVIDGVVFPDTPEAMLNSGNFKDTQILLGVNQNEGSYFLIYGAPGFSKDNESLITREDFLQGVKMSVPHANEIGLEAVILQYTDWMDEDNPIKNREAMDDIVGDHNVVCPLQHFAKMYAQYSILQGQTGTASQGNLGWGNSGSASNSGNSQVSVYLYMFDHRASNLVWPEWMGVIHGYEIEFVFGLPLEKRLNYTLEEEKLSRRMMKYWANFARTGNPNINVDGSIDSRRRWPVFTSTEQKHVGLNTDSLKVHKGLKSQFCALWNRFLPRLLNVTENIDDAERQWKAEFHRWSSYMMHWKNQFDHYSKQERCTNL
endpoint: IC50

>>> value_observed("Cc1ccc(NC(=O)Oc2cc(C(C)C)ccc2C)cc1")
"6.17 µM"
>>> value_observed("Cc1ccc(C(C)C)cc1OC(=O)Nc1ccc([N+](=O)[O-])cc1")
"121 µM"
>>> value_observed("Cc1ccc(C(C)C)c(OC(=O)Nc2cccc3ccccc23)c1")
"157 µM"
>>> value_observed("Cc1ccc(C(C)C)c(OC(=O)Nc2cccc([N+](=O)[O-])c2)c1")
"82.9 µM"
>>> value_observed("Cc1ccc(C(C)C)c(O)c1 [THYMOL]")
"458 µM"
>>> value_observed("Cc1ccc(C(C)C)cc1OC(=O)Nc1ccc(Br)cc1")
"104 µM"
>>> value_observed("COc1ccc(NC(=O)Oc2cc(C(C)C)ccc2C)cc1")
"54.5 µM"
>>> value_observed("Cc1ccc(C(C)C)c(OC(=O)Nc2ccc(Cl)c(Cl)c2)c1")
"89.5 µM"
>>> value_observed("Cc1ccc(C(C)C)cc1OC(=O)Nc1cccc([N+](=O)[O-])c1")
"5.05 µM"
>>> value_observed("COc1cccc(NC(=O)Oc2cc(C(C)C)ccc2C)c1")
"2.24 µM"
>>> value_observed("COc1cccc(NC(=O)Oc2cc(C)ccc2C(C)C)c1")
"154 µM"
>>> value_observed("Cc1ccc(C(C)C)cc1OC(=O)NC1CCCCC1")
"23 µM"

###

- assay-explanation: Cytotoxicity against rat H4IIE cells assessed as cell viability at 1.25 uM after 24 hrs by MTT assay relative to control
- Type: toxicity
- experimental-context: read-out: Activity
Please note: viability at 24 h, 1.25 µM exactly at 50% is Criterion not met. Only values below 50% get Criterion met.

>>> cat("Cc1ccc(C(C)C)cc1OC(=O)Nc1ccc(F)cc1")
"Criterion not met"
>>> cat("Cc1ccc(C(C)C)cc1OC(=O)Nc1ccccc1")
"Criterion not met"
>>> cat("Cc1ccc(C(C)C)cc1OC(=O)Nc1cccc(F)c1")
"Criterion met"
>>> cat("Cc1ccc(C(C)C)c(OC(=O)Nc2ccc([N+](=O)[O-])cc2)c1")
"Criterion met"

###

- assay-explanation: Cytotoxicity against rat H4IIE cells assessed as cell viability at 5 uM after 24 hrs by MTT assay relative to control
- Format: toxicity
- experimental-context: read-out: Activity
Collected viability at 24 h, 5 µM values appear next to each entry.
endpoint: viability at 24 h, 5 µM (%)

>>> value_observed("Cc1ccc(C(C)C)cc1OC(=O)Nc1ccccc1")
25.8
>>> value_observed("Cc1ccc(C(C)C)cc1OC(=O)Nc1cccc(F)c1")
37.2
>>> value_observed("Cc1ccc(C(C)C)c(OC(=O)Nc2ccc([N+](=O)[O-])cc2)c1")
32.8
>>> value_observed("Cc1ccc(C(C)C)cc1OC(=O)Nc1ccc(F)cc1")
32.8
>>> value_observed("Cc1ccc(C(C)C)cc1OC(=O)NC1CCCC1")
38.9

###

Collected viability at 24 h, 0.15 µM values appear next to each entry.
- assay-explanation: Cytotoxicity against rat H4IIE cells assessed as cell viability at 0.15 uM after 24 hrs by MTT assay relative to control
- Assay type: toxicity
- experimental-context: read-out: Activity
endpoint: viability at 24 h, 0.15 µM (%)

>>> value_observed("Cc1ccc(C(C)C)cc1OC(=O)NC1CCCC1")
75.6
>>> value_observed("Cc1ccc(C(C)C)cc1OC(=O)Nc1ccc(F)cc1")
69.4
>>> value_observed("Cc1ccc(C(C)C)cc1OC(=O)Nc1ccccc1")
87.9
>>> value_observed("Cc1ccc(C(C)C)c(OC(=O)Nc2ccc([N+](=O)[O-])cc2)c1")
57.8
>>> value_observed("Cc1ccc(C(C)C)cc1OC(=O)Nc1cccc(F)c1")
90
